measurement setup: 303.15 K; 100 kPa
// not satisfied strictly below 0.6 mPa·s in viscosity; satisfied otherwise

These solved cases illustrate the format of a correct answer.
CCCOCC(C)O (stereo not given); satisfied
CC(=O)c1ccccc1; satisfied
CC(C)OC(C)C; not satisfied
COCOC; not satisfied

# evaluate next
# input Check this compound for viscosity at or above 0.6 mPa·s: CCCCCCCCC
# output satisfied

----------
measurement setup: 313.15 K; 101 kPa
property label: viscosity (mPa·s)
Note: unit mPa·s is implicit; provide only the numeric part.

Here is how some compounds turned out for viscosity.
CCCCCCCCC; 0.5652
CC[NH2+]CC.O=S(=O)([O-])O; 21.9
C1COCO1; 0.55

# input Which viscosity value belongs to C#CCO ?
# output 1.103

# input Which viscosity value belongs to CCC(O)CC ?
# output 2.23

# input Which viscosity value belongs to CCN(CCO)CCO ?
# output 28.36
